protocolDetails: NCI Yeast Anticancer Drug Screen. Data for the bub3 strain (AID 167)
experimentalSetup: S. cerevisiae bub3 mutant strain, at 50.0 µM
About 79,000 compounds went through this panel and 15% of them were active in at least one assay; those are over-represented in the sample as a whole. Calls of active or inactive are those of the source. Rule as the data show it: active = growth inhibition above about 70%; inactive = the rest.
Field 'call' accepts 1 = active, -1 = inactive

Lookup: Would you mind telling me which call this test gave CSCCC(NC(=O)c1cnc2ccccc2c1)C(N)=O (configuration not stated) ?
Found: -1

Lookup: Would you mind telling me which call this test gave CC[CH2][Sn]([CH2]CC)([O]C(=O)c1cccnc1SC)[O][Sn]([CH2]CC)([CH2]CC)[O]C(=O)c1cccnc1SC ?
Found: 1

Lookup: Would you mind telling me which call this test gave Clc1cccc(CC(Br)Br)c1 ?
Found: -1

Lookup: Would you mind telling me which call this test gave C[C@]12CC[C@@H]3c4ccc(O)cc4CC[C@H]3[C@@H]1CC[C@@H]2OC(=O)CCc1ccccc1 ?
Found: -1

Lookup: Would you mind telling me which call this test gave CCCCC1C2C(S(=O)(=O)c3ccccc3)=NOC2C=CN1C(C)=O (configuration not stated) ?
Found: -1

Lookup: Would you mind telling me which call this test gave CCCNC(=O)CCC(=O)NS(=O)(=O)c1ccc(Cl)cc1 ?
Found: -1

Lookup: Would you mind telling me which call this test gave C=CCCc1cc(OC)ccc1C(=O)C(C)C ?
Found: -1

---

Could you please report measured growth inhibition for the items listed next?
protocolDetails: NCI Yeast Anticancer Drug Screen. Data for the bub3 strain (AID 167)
experimentalSetup: S. cerevisiae bub3 mutant strain, at 50.0 µM, hits give high values
About 79,000 compounds went through this panel and 15% of them were active in at least one assay; those are over-represented in the sample as a whole.
Write the answer as a number in %, unit excluded.

For COc1ccc(-n2c(=O)c(N=Nc3ccccc3)c(O)n(-c3ccccc3OC)c2=S)cc1 the compound record lists growth inhibition as 8.95

For O=C(OC1CCCC1)C1(O)CCCCC1 the compound record lists growth inhibition as -2.15

For O=P(c1ccccc1)(c1ccccc1)C(O)c1cccs1 (centres undefined) the compound record lists growth inhibition as 24.9

For CCOC(=O)c1ccc(NC(=O)Nc2cccc(Cl)c2)cc1 the compound record lists growth inhibition as 25.4

For CCC(=O)c1cccc(-c2ccccc2)c1CC the compound record lists growth inhibition as -22.6

For O=C(NC1CC/C=C(/c2ccccc2)CC(Cl)C1)c1ccccc1 (centres undefined) the compound record lists growth inhibition as 6.6

For CCCCOC(=O)C1CC2CC1C1OC21 (centres undefined) the compound record lists growth inhibition as -51.9

For O=S(=O)(O)SCCCNCCCCCCCCNCCCSS(=O)(=O)O the compound record lists growth inhibition as 8.45

For CN1NC(c2ccc(Cl)cc2)=C(C#N)C(=O)CC1c1ccccc1 (centres undefined) the compound record lists growth inhibition as -20.4

For NC(CCCO)C(=O)O (centres undefined) the compound record lists growth inhibition as -26.6

For Nc1nc(Cl)nc(Cl)c1N the compound record lists growth inhibition as -8.95

For CC(C)=C/C(C)=N/NC(N)=O the compound record lists growth inhibition as -19.8

For Cc1csc(=S)n1C the compound record lists growth inhibition as -12

For CCCCCNC(=O)c1ccc([N+](=O)[O-])cc1 the compound record lists growth inhibition as -1

For Nc1ccc(N=Nc2c(S(=O)(=O)O)cc3cc(S(=O)(=O)O)cc(O)c3c2O)cc1 the compound record lists growth inhibition as 6.55

For N#Cc1cnc(=S)n(-c2cc(C(F)(F)F)cc(C(F)(F)F)c2)c1N the compound record lists growth inhibition as 8.85

For CN=NNc1ccc(C(=O)NC(C)C)cc1 the compound record lists growth inhibition as -13.7

For CC(NC(=O)c1cnc2ccccc2n1)C(=O)O (centres undefined) the compound record lists growth inhibition as 4.05

For COc1cccc(C(Nc2nncs2)Nc2nncs2)c1 the compound record lists growth inhibition as -20.3
